Catalogue of concentration at 1 h values
Test: Clinical pharmacokinetics, plasma LC-MS/MS after single oral dose of AP capsules
Type: in vivo, human (healthy volunteers)
Details: human, plasma, oral, 2000 mg, S5; 1.00 h; 2000 mg AP capsules; read-out: Plasma concentration
Readout: concentration at 1 h (ng/mL)

* C=C1CC[C@@H]2[C@](C)(CO)[C@H](O)CC[C@@]2(C)[C@@H]1CCC1=CCOC1=O [14-deoxyandrographolide] | 2.29
* C=C1CC[C@@H]2[C@](C)(CO[C@@H]3O[C@H](CO)[C@@H](O)[C@H](O)[C@H]3O)CCC[C@@]2(C)[C@@H]1CCC1=CCOC1=O [neoandrographolide] | 27.1
* C=C1CC[C@@H]2[C@](C)(CO)[C@H](O)CC[C@@]2(C)[C@@H]1C/C=C1/C(=O)OC[C@H]1O [andrographolide] | 0

* * *

Assay: Clinical pharmacokinetics, plasma LC-MS/MS after single oral dose of AP capsules
Assay type: in vivo, human (healthy volunteers)
Details: human, plasma, oral, 2000 mg, mean n=5; 6.00 h; 2000 mg AP capsules; read-out: Mean concentration
Catalogue of concentration at 6 h values
Readout: concentration at 6 h (ng/mL)

* C=C1CC[C@@H]2[C@](C)(CO)[C@H](O)CC[C@@]2(C)[C@@H]1C/C=C1/C(=O)OC[C@H]1O [andrographolide] | 0.22
* C=C1CC[C@@H]2[C@](C)(CO[C@@H]3O[C@H](CO)[C@@H](O)[C@H](O)[C@H]3O)CCC[C@@]2(C)[C@@H]1CCC1=CCOC1=O [neoandrographolide] | 5.28
* C=C1CC[C@@H]2[C@](C)(CO)[C@H](O)CC[C@@]2(C)[C@@H]1CCC1=CCOC1=O [14-deoxyandrographolide] | 0.74

* * *

Test: Clinical pharmacokinetics, plasma LC-MS/MS after single oral dose of AP capsules
Assay type: in vivo, human (healthy volunteers)
Conditions: human, plasma, oral, 2000 mg, S4; 4.00 h; 2000 mg AP capsules; read-out: Plasma concentration
Readout: concentration at 4 h (ng/mL)

* C=C1CC[C@@H]2[C@](C)(CO)[C@H](O)CC[C@@]2(C)[C@@H]1CCC1=CCOC1=O [14-deoxyandrographolide] | 1.69
* C=C1CC[C@@H]2[C@](C)(CO)[C@H](O)CC[C@@]2(C)[C@@H]1C/C=C1/C(=O)OC[C@H]1O [andrographolide] | 0
* C=C1CC[C@@H]2[C@](C)(CO[C@@H]3O[C@H](CO)[C@@H](O)[C@H](O)[C@H]3O)CCC[C@@]2(C)[C@@H]1CCC1=CCOC1=O [neoandrographolide] | 21.9

* * *

Assay: Clinical pharmacokinetics, plasma LC-MS/MS after single oral dose of AP capsules
Format: in vivo, human (healthy volunteers)
Settings: human, plasma, oral, 2000 mg, S4; 5.00 h; 2000 mg AP capsules; read-out: Plasma concentration
Catalogue of concentration at 5 h values
Readout: concentration at 5 h (ng/mL)

- C=C1CC[C@@H]2[C@](C)(CO)[C@H](O)CC[C@@]2(C)[C@@H]1CCC1=CCOC1=O [14-deoxyandrographolide]: 1.8
- C=C1CC[C@@H]2[C@](C)(CO[C@@H]3O[C@H](CO)[C@@H](O)[C@H](O)[C@H]3O)CCC[C@@]2(C)[C@@H]1CCC1=CCOC1=O [neoandrographolide]: 20.6
- C=C1CC[C@@H]2[C@](C)(CO)[C@H](O)CC[C@@]2(C)[C@@H]1C/C=C1/C(=O)OC[C@H]1O [andrographolide]: 0

* * *

Assay: Clinical pharmacokinetics, plasma LC-MS/MS after single oral dose of AP capsules
Format: in vivo, human (healthy volunteers)
Settings: human, plasma, oral, 2000 mg, S5; 3.50 h; 2000 mg AP capsules; read-out: Plasma concentration
Procedure: The protocol was published (Tee et al. [2022]). Seven calibrators ranging from 1, 2, 5,10, 20, 50, and 100 ng mL^−1 were prepared. […] Pharmacokinetic parameters were determined from plasma samples (5 subjects, 15 time points) analyzed via LC–MS/MS (Shimadzu 8060NX). […]
Readout: concentration at 3.5 h (ng/mL)

• C=C1CC[C@@H]2[C@](C)(CO[C@@H]3O[C@H](CO)[C@@H](O)[C@H](O)[C@H]3O)CCC[C@@]2(C)[C@@H]1CCC1=CCOC1=O [neoandrographolide] = 31.1
• C=C1CC[C@@H]2[C@](C)(CO)[C@H](O)CC[C@@]2(C)[C@@H]1C/C=C1/C(=O)OC[C@H]1O [andrographolide] = 1.59
• C=C1CC[C@@H]2[C@](C)(CO)[C@H](O)CC[C@@]2(C)[C@@H]1CCC1=CCOC1=O [14-deoxyandrographolide] = 2.09

* * *

Test: Clinical pharmacokinetics, plasma LC-MS/MS after single oral dose of AP capsules
Assay type: in vivo, human (healthy volunteers)
Settings: human, plasma, oral, 2000 mg, S5; 1.50 h; 2000 mg AP capsules; read-out: Plasma concentration
Experimental: The protocol was published (Tee et al. [2022]). Seven calibrators ranging from 1, 2, 5,10, 20, 50, and 100 ng mL^−1 were prepared. […] Pharmacokinetic parameters were determined from plasma samples (5 subjects, 15 time points) analyzed via LC–MS/MS (Shimadzu 8060NX). […]
Catalogue of concentration at 1.5 h values
Readout: concentration at 1.5 h

* C=C1CC[C@@H]2[C@](C)(CO[C@@H]3O[C@H](CO)[C@@H](O)[C@H](O)[C@H]3O)CCC[C@@]2(C)[C@@H]1CCC1=CCOC1=O [neoandrographolide] | 48 ng/mL
* C=C1CC[C@@H]2[C@](C)(CO)[C@H](O)CC[C@@]2(C)[C@@H]1C/C=C1/C(=O)OC[C@H]1O [andrographolide] | 2.52 ng/mL
* C=C1CC[C@@H]2[C@](C)(CO)[C@H](O)CC[C@@]2(C)[C@@H]1CCC1=CCOC1=O [14-deoxyandrographolide] | 3.39 ng/mL

* * *

Assay: Clinical pharmacokinetics, plasma LC-MS/MS after single oral dose of AP capsules
Format: in vivo, human (healthy volunteers)
Conditions: human, plasma, oral, 2000 mg, S2; 10.00 h; 2000 mg AP capsules; read-out: Plasma concentration
Catalogue of concentration at 10 h values
Readout: concentration at 10 h (ng/mL)

* C=C1CC[C@@H]2[C@](C)(CO)[C@H](O)CC[C@@]2(C)[C@@H]1CCC1=CCOC1=O [14-deoxyandrographolide] | 0
* C=C1CC[C@@H]2[C@](C)(CO[C@@H]3O[C@H](CO)[C@@H](O)[C@H](O)[C@H]3O)CCC[C@@]2(C)[C@@H]1CCC1=CCOC1=O [neoandrographolide] | 0
* C=C1CC[C@@H]2[C@](C)(CO)[C@H](O)CC[C@@]2(C)[C@@H]1C/C=C1/C(=O)OC[C@H]1O [andrographolide] | 0

* * *

Test: Clinical pharmacokinetics, plasma LC-MS/MS after single oral dose of AP capsules
Type: in vivo, human (healthy volunteers)
Conditions: human, plasma, oral, 2000 mg, S5; 6.00 h; 2000 mg AP capsules; read-out: Plasma concentration
Readout: concentration at 6 h (ng/mL)

* C=C1CC[C@@H]2[C@](C)(CO)[C@H](O)CC[C@@]2(C)[C@@H]1C/C=C1/C(=O)OC[C@H]1O [andrographolide] | 1.12
* C=C1CC[C@@H]2[C@](C)(CO[C@@H]3O[C@H](CO)[C@@H](O)[C@H](O)[C@H]3O)CCC[C@@]2(C)[C@@H]1CCC1=CCOC1=O [neoandrographolide] | 4.65
* C=C1CC[C@@H]2[C@](C)(CO)[C@H](O)CC[C@@]2(C)[C@@H]1CCC1=CCOC1=O [14-deoxyandrographolide] | 1.7

* * *

Experiment: Clinical pharmacokinetics, plasma LC-MS/MS after single oral dose of AP capsules
Type: in vivo, human (healthy volunteers)
Details: human, plasma, oral, 2000 mg, S1; 3.50 h; 2000 mg AP capsules; read-out: Plasma concentration
Catalogue of concentration at 3.5 h values
Readout: concentration at 3.5 h

- C=C1CC[C@@H]2[C@](C)(CO[C@@H]3O[C@H](CO)[C@@H](O)[C@H](O)[C@H]3O)CCC[C@@]2(C)[C@@H]1CCC1=CCOC1=O [neoandrographolide]: 22.2 ng/mL
- C=C1CC[C@@H]2[C@](C)(CO)[C@H](O)CC[C@@]2(C)[C@@H]1CCC1=CCOC1=O [14-deoxyandrographolide]: 3.78 ng/mL
- C=C1CC[C@@H]2[C@](C)(CO)[C@H](O)CC[C@@]2(C)[C@@H]1C/C=C1/C(=O)OC[C@H]1O [andrographolide]: 2.81 ng/mL

* * *

Experiment: Clinical pharmacokinetics, plasma LC-MS/MS after single oral dose of AP capsules
Assay type: in vivo, human (healthy volunteers)
Details: human, plasma, oral, 2000 mg, S2; 5.00 h; 2000 mg AP capsules; read-out: Plasma concentration
Readout: concentration at 5 h (ng/mL)

- C=C1CC[C@@H]2[C@](C)(CO)[C@H](O)CC[C@@]2(C)[C@@H]1C/C=C1/C(=O)OC[C@H]1O [andrographolide]: 0
- C=C1CC[C@@H]2[C@](C)(CO)[C@H](O)CC[C@@]2(C)[C@@H]1CCC1=CCOC1=O [14-deoxyandrographolide]: 0
- C=C1CC[C@@H]2[C@](C)(CO[C@@H]3O[C@H](CO)[C@@H](O)[C@H](O)[C@H]3O)CCC[C@@]2(C)[C@@H]1CCC1=CCOC1=O [neoandrographolide]: 16.2
